B1: PLD5 (parent)
chain: WIVDKQHVYIGSAGLDWQSLGQMK

Variants of: B1
test details: protein stability index of a GFP-peptide fusion (GPS, HEK-293T) (PSI 1-6); higher = more stable;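 further: lentivirally expressed fusions sorted by FACS into six bins by GFP to DsRed ratio, PSI derived from sequencing read proportions per bin multiplied by bin number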
particulars: c terminus: a fixed tail appended
Listing: protein stability index of selected variants
metric name: protein stability index

[
  {
    "sequence change": "D16Y",
    "experimental result": 2.52
  },
  {
    "sequence change": "Q18N",
    "experimental result": 2.1
  },
  {
    "sequence change": "D16H",
    "experimental result": 1.44
  },
  {
    "sequence change": "I2K",
    "experimental result": 1.9
  },
  {
    "sequence change": "W17T",
    "experimental result": 1.9
  },
  {
    "sequence change": "S12K",
    "experimental result": 2.07
  },
  {
    "sequence change": "V3A",
    "experimental result": 1.86
  },
  {
    "sequence change": "Q18D",
    "experimental result": 2.42
  },
  {
    "sequence change": "W17P",
    "experimental result": 1.64
  },
  {
    "sequence change": "K5G",
    "experimental result": 1.8
  },
  {
    "sequence change": "I10E",
    "experimental result": 2.22
  },
  {
    "sequence change": "I2R",
    "experimental result": 2.17
  },
  {
    "sequence change": "I2Q",
    "experimental result": 2.48
  },
  {
    "sequence change": "V8S",
    "experimental result": 1.69
  },
  {
    "sequence change": "M23I",
    "experimental result": 2.15
  },
  {
    "sequence change": "K5D",
    "experimental result": 1.42
  },
  {
    "sequence change": "Y9I",
    "experimental result": 1.45
  },
  {
    "sequence change": "D16C",
    "experimental result": 2.39
  },
  {
    "sequence change": "I10S",
    "experimental result": 1.73
  },
  {
    "sequence change": "G11F",
    "experimental result": 2.11
  },
  {
    "sequence change": "Q22G",
    "experimental result": 1.8
  },
  {
    "sequence change": "G14P",
    "experimental result": 2.23
  },
  {
    "sequence change": "V3K",
    "experimental result": 1.84
  },
  {
    "sequence change": "V8C",
    "experimental result": 1.58
  },
  {
    "sequence change": "K24H",
    "experimental result": 2.79
  },
  {
    "sequence change": "D16L",
    "experimental result": 2.44
  },
  {
    "sequence change": "W1D",
    "experimental result": 2.15
  },
  {
    "sequence change": "S12P",
    "experimental result": 1.89
  },
  {
    "sequence change": "I2G",
    "experimental result": 1.87
  },
  {
    "sequence change": "W17A",
    "experimental result": 1.97
  },
  {
    "sequence change": "H7G",
    "experimental result": 2.17
  },
  {
    "sequence change": "Y9H",
    "experimental result": 1.75
  },
  {
    "sequence change": "G11V",
    "experimental result": 2.02
  },
  {
    "sequence change": "Q18F",
    "experimental result": 4.52
  },
  {
    "sequence change": "L15R",
    "experimental result": 1.55
  },
  {
    "sequence change": "S19F",
    "experimental result": 2.34
  },
  {
    "sequence change": "Q18T",
    "experimental result": 2.07
  },
  {
    "sequence change": "K5C",
    "experimental result": 2.29
  },
  {
    "sequence change": "G11C",
    "experimental result": 2.07
  },
  {
    "sequence change": "Q22V",
    "experimental result": 1.79
  },
  {
    "sequence change": "Q6D",
    "experimental result": 1.4
  },
  {
    "sequence change": "W1M",
    "experimental result": 1.43
  },
  {
    "sequence change": "G14D",
    "experimental result": 2.12
  },
  {
    "sequence change": "V8W",
    "experimental result": 2.43
  },
  {
    "sequence change": "A13P",
    "experimental result": 1.55
  },
  {
    "sequence change": "S12G",
    "experimental result": 1.72
  }
]
